Sourced from ChEMBL document CHEMBL5724806

# Protocol notes: The drug is tested on the gut metagenome community of T-04 with ENA study accession number: PRJEB31790 for biotransformation under microaerobic condition. The drug concentrations were measured over 7 timepoints collected between 0 and 12 hours of incubation by liquid-chromatography-coupled mass spectrometry (LC–MS)
# Assay type: ADME
# Parameters: dose 5 uM, timepoint 0, 0.75, 1.5, 3, 6, 9, 12 hours
# Particulars: 5 µM
Readout kind: Bacterial Biotransformation

Below, 6 compounds whose answers are already recorded.
| Compound | Bacterial Biotransformation |
| --- | --- |
| C[C@]12C=CC(=O)C=C1CC[C@@H]1[C@@H]2[C@@H](O)C[C@@]2(C)[C@H]1CC[C@]2(O)C(=O)CO | Compound NOT metabolized |
| CCOC(=O)[C@H](CCc1ccccc1)N[C@@H](C)C(=O)N1[C@H](C(=O)O)C[C@@H]2CCC[C@@H]21 | Compound NOT metabolized |
| CC(C)NCC(O)COc1ccc(CC(N)=O)cc1 (stereo not drawn) | Compound NOT metabolized |
| CCOc1nc2cccc(C(=O)O)c2n1Cc1ccc(-c2ccccc2-c2nnn[nH]2)cc1 | Compound NOT metabolized |
| C[C@]12CCC(=O)C=C1CC[C@@H]1[C@@H]2C(=O)C[C@@]2(C)[C@H]1CC[C@]2(O)C(=O)CO | Compound NOT metabolized |
| CCC(C)(C)C(=O)O[C@H]1C[C@@H](C)C=C2C=C[C@H](C)[C@H](CC[C@@H]3C[C@@H](O)CC(=O)O3)[C@H]21 | Compound NOT metabolized |

For the next question, use this compound.
Need Bacterial Biotransformation of C[C@@H](NCCCc1cccc(C(F)(F)F)c1)c1cccc2ccccc12 , thanks.
Compound NOT metabolized
